Molecular target: EBOV GP ectodomain residues 1-636 (GPec) (Zaire ebolavirus, strain  …, UniProt Q05320)
measured-endpoint: binding result

{"binder": "5.6.c2687 (antibody, V domains shown) VH: QVQLMESGGGVVQPGRSLRLSCAASGFTFSSYGMHWVRQAPGKGLEWVAVIWNDGSNKYYADSVKGRFTISRDNSKNTLYLQMNSLRVEDTAVYYCARDSSAPAAIFYDAFDMWGQGTMVTVSS VL: EIVMTQSPATLSVSPGERATLSCRASQSINSNLAWYQQKPGQAPRLLIYGVSTRATGIPARFSGSGSGTEFTLTISSLQSEDFAVYYCQQYNNWWTFGQGTKVEIK", "endpoint-value": "binds"}
{"binder": "5.6.c3362 (antibody, V domains shown) VH: QLQLQQSGPGLVKPSETLSLTCNVSGGSISSSSTYSWGWIRQPPGKGLEWIGNIYYSGSTYYNPSLKSRVTISVDTSKNQFSLKLSSVTAADTAVYYCARSFRGPTGAFYYYSYAMDVWGRGTTVTVSS VL: SSELTQDPAVSVALGQTVRITCQGDSLRTYYASWYQQKPGQAPVLVIYGKKNRPSGIPDRFSGSSSGNTASLTITGAQAEDEADYYCNSQDSSGDLVLFGGGTKVTAL", "endpoint-value": "binds"}
{"binder": "5.6.c3027 (antibody, V domains shown) VH: QVQLVESGGGVVQPGRSLRLSCAASGFSFNNYGMHWVRQAPGKGLEWVAHIYFDGNYKFYIDSVKGRFTISRDNAKYTLYLQMNSLRVEDTAVYYCARDVRDGDDIFSGYHYGMDVWGQGTTVTVSS VL: DIQMTQSPSSVSASVGDRVSITCRASQGFTNWLAWYQQKPGKAPKLVIYAASSLQSGVPSRFSGSGSGTNFTLTISSLQPEDFATYYCQQANSFPLTFGGGTKVDVK", "endpoint-value": "binds"}
